target: Delta-type opioid receptor (Homo sapiens, UniProt P41143); assay: Inhibition of [125I]deltorphin binding to human delta opioid receptor from membranes of HEK293 cells; type: cell membranes; conditions: hek293
Sequence (P41143 whole entry): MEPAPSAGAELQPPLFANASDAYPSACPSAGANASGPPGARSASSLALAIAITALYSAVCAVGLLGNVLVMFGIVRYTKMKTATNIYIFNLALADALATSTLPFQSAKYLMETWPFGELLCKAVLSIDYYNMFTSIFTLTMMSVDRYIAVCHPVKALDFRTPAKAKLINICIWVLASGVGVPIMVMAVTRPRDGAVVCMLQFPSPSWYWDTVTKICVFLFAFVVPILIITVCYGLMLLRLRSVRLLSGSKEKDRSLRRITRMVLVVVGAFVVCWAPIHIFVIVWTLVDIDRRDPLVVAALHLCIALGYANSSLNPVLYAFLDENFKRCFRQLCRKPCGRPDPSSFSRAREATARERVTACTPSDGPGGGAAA
pIC50: −log10 of the molar value.
property_measured: pIC50

Tested on Delta-type opioid receptor (Homo sapiens, UniProt P41143): O=c1c(-c2ccccc2)cccn1C(CN1CCC(O)C1)c1ccccc1 (stereo in doubt; 14f) . Observed pIC50: < 5.00

###

As shown below, each of these compounds has a reported IC50 value.
target: Mu-type opioid receptor (Homo sapiens, UniProt P35372); assay: Inhibition of [125I]Enkephalin binding to human mu opioid receptor from membranes of HEK293 cells; format: cell membranes
Sequence (P35372 whole entry): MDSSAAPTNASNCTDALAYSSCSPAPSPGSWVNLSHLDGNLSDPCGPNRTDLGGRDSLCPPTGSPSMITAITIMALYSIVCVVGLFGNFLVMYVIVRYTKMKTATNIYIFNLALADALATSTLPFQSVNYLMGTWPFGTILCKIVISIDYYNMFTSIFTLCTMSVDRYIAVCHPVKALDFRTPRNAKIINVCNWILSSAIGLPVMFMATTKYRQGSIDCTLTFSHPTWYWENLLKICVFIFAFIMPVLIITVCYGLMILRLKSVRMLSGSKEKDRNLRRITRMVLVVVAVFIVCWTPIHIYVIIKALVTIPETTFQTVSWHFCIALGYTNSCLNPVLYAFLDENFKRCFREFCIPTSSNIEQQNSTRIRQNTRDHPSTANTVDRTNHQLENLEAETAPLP

compound: COc1ccc(OC)c(-c2cccn(C(CN3CCC(O)C3)c3ccccc3)c2=O)c1 (stereo not given)
assay_target: Mu-type opioid receptor (Homo sapiens, UniProt P35372)
property_measured: IC50
observed_result: 2220 nM

Value of IC50 reported for the compound O=c1c(-c2ccc(C(F)(F)F)cc2)cccn1C(CN1CCOCC1)c1ccccc1 (stereo not given) is > 10000 nM

Value of IC50 reported for the compound Nc1cccc(-c2cccn(C(CN3CCC(O)C3)c3ccccc3)c2=O)c1 (stereo not given) is 2910 nM

Value of IC50 reported for the compound O=c1c(-c2cccc(OC(F)(F)F)c2)cccn1C(CN1CCC(O)C1)c1ccccc1 (stereo not given) is > 5000 nM

Value of IC50 reported for the compound COc1ccc(F)cc1-c1cccn(C(CN2CCC(O)C2)c2ccccc2)c1=O (stereo not given) is > 10000 nM

###

As shown below, each of these compounds has a reported pIC50 value.
target: Kappa-type opioid receptor (Homo sapiens, UniProt P41145); experiment: Inhibition of [125I]-(D-Pro10)-Dynorphin A binding to human kappa opioid receptor from membranes of HEK293 cells
Sequence (P41145 whole entry): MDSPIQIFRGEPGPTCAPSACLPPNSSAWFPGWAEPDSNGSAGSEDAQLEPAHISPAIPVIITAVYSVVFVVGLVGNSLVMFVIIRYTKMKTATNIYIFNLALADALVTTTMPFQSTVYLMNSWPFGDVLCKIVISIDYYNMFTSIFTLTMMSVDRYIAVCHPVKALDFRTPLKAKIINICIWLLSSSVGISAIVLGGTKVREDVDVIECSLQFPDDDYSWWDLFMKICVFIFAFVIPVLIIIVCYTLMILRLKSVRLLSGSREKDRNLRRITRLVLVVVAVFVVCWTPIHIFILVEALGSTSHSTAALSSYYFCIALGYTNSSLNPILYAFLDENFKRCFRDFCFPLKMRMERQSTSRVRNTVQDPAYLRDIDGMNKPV
Keep it numeric: pIC50 is minus log10 of the concentration in mol/L.

Examples with answers:
compound: CC(=O)c1ccc(-c2cccn(C(CN3CCC(O)C3)c3ccccc3)c2=O)s1 (stereo not given)
observed_result: 7.42
//
compound: O=c1c(-c2ccccc2)cncn1C(CN1CCCC1)c1ccccc1 (stereo not given)
observed_result: 5.75
//
compound: O=C1COc2ccc(C(CN3CCCC3)n3cccc(-c4ccc(C(F)(F)F)cc4)c3=O)cc2N1 (stereo not given)
observed_result: 7.24

--- query ---
Value of pIC50 reported for the compound Cc1ccc(C(C)Nc2cccn(C(CN3CCCC3)c3ccccc3)c2=O)cc1 (stereo not given) is 6.48

Origin of measurements: ChEMBL document CHEMBL1136656
